The origin of these recorded values is ChEMBL document CHEMBL3351780.

- Tested on: Shigella dysenteriae
- Test: Antibacterial activity against Shigella dysenteriae by two-fold serial dilution method
- Assay type: functional
Quick reference for MIC among some molecules
Enter your answer as a number in µg/mL; do not include the unit.

Below are worked cases with known answers.
Molecule	Tested System	U	MIC
Cc1ncc([N+](=O)[O-])n1CC(O)Cn1cc(C(=O)O)c(=O)c2cc(Cl)cc(Cl)c21 (stereo not drawn)	Shigella dysenteriae	µg/mL	16
Cc1ncc([N+](=O)[O-])n1CC(O)Cn1cc(C(=O)O)c(=O)c2cc(F)c(Cl)cc21 (stereo not drawn)	Shigella dysenteriae	µg/mL	16
CCOC(=O)c1cn(CC(O)Cn2c([N+](=O)[O-])cnc2C)c2c(F)cc(F)cc2c1=O (racemic)	Shigella dysenteriae	µg/mL	16
Cc1ccc2c(c1)c(=O)c(C(=O)O)cn2CC(O)Cn1cnc([N+](=O)[O-])c1 (stereo not drawn)	Shigella dysenteriae	µg/mL	4
CCOC(=O)c1cn(CC(O)Cn2c([N+](=O)[O-])cnc2C)c2ccc(F)cc2c1=O (racemic)	Shigella dysenteriae	µg/mL	8

Asked: Identify MIC associated with the molecule CCOC(=O)c1cn(CC(O)Cn2cnc([N+](=O)[O-])c2)c2c(F)cc(F)cc2c1=O (racemic)
Given back: 16

Asked: Give the measured MIC for O=C(O)c1cn(CC(O)Cn2cnc([N+](=O)[O-])c2)c2cc(C(F)(F)F)ccc2c1=O (stereo not drawn)
Given back: 4

Asked: Respond only with MIC recorded for CCOC(=O)c1cn(CC(O)Cn2cnc([N+](=O)[O-])c2)c2cc(Cl)c(F)cc2c1=O (racemic)
Given back: 16
